# ASSAY_SYSTEM: Glutamate receptor ionotropic, NMDA 2B (Rattus norvegicus) (UniProt Q00960)
# Sequence (Q00960 27-1482 limits assumed): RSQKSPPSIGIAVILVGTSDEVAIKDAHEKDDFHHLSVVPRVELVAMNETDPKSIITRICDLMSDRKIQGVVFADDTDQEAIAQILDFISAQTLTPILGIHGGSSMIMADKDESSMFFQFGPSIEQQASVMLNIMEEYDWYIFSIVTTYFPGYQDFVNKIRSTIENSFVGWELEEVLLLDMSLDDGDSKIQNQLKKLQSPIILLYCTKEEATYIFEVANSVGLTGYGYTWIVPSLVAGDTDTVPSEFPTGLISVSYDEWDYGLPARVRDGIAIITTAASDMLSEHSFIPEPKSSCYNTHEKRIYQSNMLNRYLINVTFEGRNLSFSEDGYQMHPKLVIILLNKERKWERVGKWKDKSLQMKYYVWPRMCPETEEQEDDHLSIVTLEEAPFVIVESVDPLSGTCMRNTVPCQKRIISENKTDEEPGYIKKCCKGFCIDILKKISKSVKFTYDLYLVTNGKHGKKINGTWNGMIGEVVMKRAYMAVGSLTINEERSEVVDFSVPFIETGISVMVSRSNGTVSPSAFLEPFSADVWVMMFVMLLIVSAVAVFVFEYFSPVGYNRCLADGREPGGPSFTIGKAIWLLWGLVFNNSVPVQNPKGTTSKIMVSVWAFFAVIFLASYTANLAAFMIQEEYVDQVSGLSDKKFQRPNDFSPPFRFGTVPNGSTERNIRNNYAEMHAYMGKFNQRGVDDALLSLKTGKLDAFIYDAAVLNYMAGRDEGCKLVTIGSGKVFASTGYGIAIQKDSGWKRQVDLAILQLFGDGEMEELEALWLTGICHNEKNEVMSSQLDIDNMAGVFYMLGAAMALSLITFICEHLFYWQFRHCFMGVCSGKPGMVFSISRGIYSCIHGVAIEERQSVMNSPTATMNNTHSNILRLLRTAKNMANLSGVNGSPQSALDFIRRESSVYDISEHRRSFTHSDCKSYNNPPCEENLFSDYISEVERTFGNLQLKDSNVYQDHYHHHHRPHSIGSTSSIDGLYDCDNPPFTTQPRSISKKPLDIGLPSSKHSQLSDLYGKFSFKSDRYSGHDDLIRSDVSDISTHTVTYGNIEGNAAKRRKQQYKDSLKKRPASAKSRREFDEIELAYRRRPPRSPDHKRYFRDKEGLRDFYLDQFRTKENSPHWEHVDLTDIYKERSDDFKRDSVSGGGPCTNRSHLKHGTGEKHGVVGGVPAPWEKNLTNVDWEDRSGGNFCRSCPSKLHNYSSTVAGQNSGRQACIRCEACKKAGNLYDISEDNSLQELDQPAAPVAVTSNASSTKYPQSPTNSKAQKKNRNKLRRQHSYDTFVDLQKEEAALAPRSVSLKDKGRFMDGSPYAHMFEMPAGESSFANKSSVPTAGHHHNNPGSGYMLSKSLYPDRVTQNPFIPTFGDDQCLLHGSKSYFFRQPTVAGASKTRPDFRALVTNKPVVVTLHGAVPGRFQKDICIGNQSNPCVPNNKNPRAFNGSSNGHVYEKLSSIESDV
# ASSAY_NOTES: Displacement of [3H]Ifenprodil from NMDA receptor GluN2B subunit in Wistar rat cerebral cortex at 0.1 uM
# Type: tissue-based
READOUT_NAME: inhibition (%)
One number for each entry, in %.

Solved cases below.
{"CHEM_SMILES": "O=C(C(=O)N1CCC(Cc2ccccc2)CC1)c1c[nH]c2cc(O)c(O)cc12", "READOUT_NAME": "inhibition", "ENDPOINT_RESULT": 40}
{"CHEM_SMILES": "CS(=O)(=O)Nc1ccc2[nH]cc(C(=O)C(=O)N3CCC(Cc4ccc(F)cc4)CC3)c2c1", "READOUT_NAME": "inhibition", "ENDPOINT_RESULT": 4}
{"CHEM_SMILES": "Nc1ccc2c(C(=O)CN3CCC(Cc4ccc(F)cc4)CC3)c[nH]c2c1", "READOUT_NAME": "inhibition", "ENDPOINT_RESULT": 12}
{"CHEM_SMILES": "O=C(CN1CCC(Cc2ccccc2)CC1)c1c[nH]c2cc(O)c(O)cc12", "READOUT_NAME": "inhibition", "ENDPOINT_RESULT": 91}

Could you now look at the following compound, please?
Query (compound): `CS(=O)(=O)Nc1ccc2c(C(=O)C(=O)N3CCC(Cc4ccc(F)cc4)CC3)c[nH]c2c1` ; field requested: inhibition
67

---

# ASSAY_SYSTEM: UniProt:Q00960
# ASSAY_NOTES: Displacement of [3H]Ifenprodil from NMDA receptor GluN2B subunit in Wistar rat cerebral cortex at 10 uM
# Assay type: tissue-based
I'd be grateful if you could share measured inhibition for these entries.
Don't forget the unit after the value.

A selection of reference data follows.
{"CHEM_SMILES": "COc1ccc2[nH]cc(C(=O)C(=O)N3CCC(Cc4ccc(F)cc4)CC3)c2c1", "inhibition": "35%"}
{"CHEM_SMILES": "COc1ccc2[nH]cc(C(=O)CN3CCC(Cc4ccc(F)cc4)CC3)c2c1", "inhibition": "73%"}
{"CHEM_SMILES": "COc1cc2[nH]cc(C(=O)C(=O)N3CCC(Cc4ccccc4)CC3)c2cc1OC", "inhibition": "9%"}

Next molecule, please.
Quick one: inhibition for `COc1ccc2c(C(=O)CN3CCC(Cc4ccc(F)cc4)CC3)c[nH]c2c1` ?
82%

---

# ASSAY_SYSTEM: Glutamate receptor ionotropic, NMDA 2B (Rattus norvegicus)
# Sequence (Q00960 whole entry): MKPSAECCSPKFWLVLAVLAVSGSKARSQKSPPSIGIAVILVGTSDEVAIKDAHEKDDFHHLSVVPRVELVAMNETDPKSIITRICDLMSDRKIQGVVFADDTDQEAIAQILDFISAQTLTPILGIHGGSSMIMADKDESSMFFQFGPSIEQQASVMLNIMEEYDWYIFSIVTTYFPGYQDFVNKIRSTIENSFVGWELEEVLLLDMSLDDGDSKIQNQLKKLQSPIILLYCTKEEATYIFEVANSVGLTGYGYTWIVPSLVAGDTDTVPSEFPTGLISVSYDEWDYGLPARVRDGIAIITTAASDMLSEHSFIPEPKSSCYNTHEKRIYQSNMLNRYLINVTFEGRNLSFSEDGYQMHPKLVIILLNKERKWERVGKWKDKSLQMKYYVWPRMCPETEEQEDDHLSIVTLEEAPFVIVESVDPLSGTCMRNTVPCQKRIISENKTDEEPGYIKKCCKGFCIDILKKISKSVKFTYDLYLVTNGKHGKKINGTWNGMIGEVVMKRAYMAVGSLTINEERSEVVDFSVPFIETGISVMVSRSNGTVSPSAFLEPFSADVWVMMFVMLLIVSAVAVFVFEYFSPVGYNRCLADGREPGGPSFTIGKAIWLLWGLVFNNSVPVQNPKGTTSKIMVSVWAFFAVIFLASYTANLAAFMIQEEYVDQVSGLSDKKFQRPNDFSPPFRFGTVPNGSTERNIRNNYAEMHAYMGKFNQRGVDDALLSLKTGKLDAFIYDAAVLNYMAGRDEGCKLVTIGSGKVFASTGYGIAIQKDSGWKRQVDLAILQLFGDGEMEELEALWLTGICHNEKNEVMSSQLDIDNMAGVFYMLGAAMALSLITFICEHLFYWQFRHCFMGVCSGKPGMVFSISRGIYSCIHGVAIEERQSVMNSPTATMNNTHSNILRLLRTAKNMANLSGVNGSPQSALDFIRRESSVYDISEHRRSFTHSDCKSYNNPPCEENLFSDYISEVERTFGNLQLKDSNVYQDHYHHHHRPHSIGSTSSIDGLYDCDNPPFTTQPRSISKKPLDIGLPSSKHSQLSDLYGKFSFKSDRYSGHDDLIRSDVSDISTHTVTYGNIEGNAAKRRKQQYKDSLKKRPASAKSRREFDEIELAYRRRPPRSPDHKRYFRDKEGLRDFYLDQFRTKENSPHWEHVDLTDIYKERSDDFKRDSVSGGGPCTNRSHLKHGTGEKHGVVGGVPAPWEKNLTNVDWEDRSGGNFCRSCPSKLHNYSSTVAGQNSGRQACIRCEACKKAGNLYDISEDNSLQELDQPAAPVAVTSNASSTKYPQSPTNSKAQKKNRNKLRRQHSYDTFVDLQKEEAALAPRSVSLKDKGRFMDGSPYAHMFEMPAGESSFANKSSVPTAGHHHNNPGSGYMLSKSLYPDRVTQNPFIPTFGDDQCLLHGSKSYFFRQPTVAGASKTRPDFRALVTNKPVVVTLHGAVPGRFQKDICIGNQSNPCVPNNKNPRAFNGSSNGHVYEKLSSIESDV
# ASSAY_NOTES: Displacement of [3H]Ifenprodil from NMDA receptor GluN2B subunit in Wistar rat cerebral cortex
Field: pIC50. Provide a value for each of the compounds that follow.
One number for each entry, as −log10 of the molar value.

Record excerpt, results attached:
{"CHEM_SMILES": "O=C(CN1CCC(Cc2ccccc2)CC1)c1c[nH]c2cc(O)c(O)cc12", "pIC50": 8.26}
{"CHEM_SMILES": "O=C(CN1CCC(Cc2ccc(F)cc2)CC1)c1c[nH]c2ccc(O)cc12", "pIC50": 7.29}
{"CHEM_SMILES": "CS(=O)(=O)Nc1ccc2c(C(=O)CN3CCC(Cc4ccc(F)cc4)CC3)c[nH]c2c1", "pIC50": 8.03}
{"CHEM_SMILES": "O=C(CN1CCC(Cc2ccc(F)cc2)CC1)c1c[nH]c2cc(O)c(O)cc12", "pIC50": 7.52}
{"CHEM_SMILES": "O=C(C(=O)N1CCC(Cc2ccc(F)cc2)CC1)c1c[nH]c2cc(O)ccc12", "pIC50": 7.70}
{"CHEM_SMILES": "O=C(CN1CCC(Cc2ccc(F)cc2)CC1)c1c[nH]c2cc(O)ccc12", "pIC50": 8.04}

Consider the compound `CS(=O)(=O)Nc1ccc2c(C(=O)C(=O)N3CCC(Cc4ccc(F)cc4)CC3)c[nH]c2c1` and give its measured pIC50.
7.74

---

# ASSAY_SYSTEM: Glutamate receptor ionotropic, NMDA 2B (Rattus norvegicus)
# ASSAY_NOTES: Displacement of [3H]Ifenprodil from NMDA receptor GluN2B subunit in Wistar rat cerebral cortex at 0.1 uM
# Type: tissue-based
READOUT_NAME: inhibition (%)
Give bare numbers, in %.

{"CHEM_SMILES": "COc1ccc2c(C(=O)C(=O)N3CCC(Cc4ccc(F)cc4)CC3)c[nH]c2c1", "READOUT_NAME": "inhibition", "ENDPOINT_UNIT": "%", "ENDPOINT_RESULT": 27}
{"CHEM_SMILES": "O=C(CN1CCC(Cc2ccc(F)cc2)CC1)c1c[nH]c2cc(O)ccc12", "READOUT_NAME": "inhibition", "ENDPOINT_UNIT": "%", "ENDPOINT_RESULT": 82}
{"CHEM_SMILES": "O=C(C(=O)N1CCC(Cc2ccc(F)cc2)CC1)c1c[nH]c2cc(O)ccc12", "READOUT_NAME": "inhibition", "ENDPOINT_UNIT": "%", "ENDPOINT_RESULT": 61}
{"CHEM_SMILES": "Nc1ccc2[nH]cc(C(=O)CN3CCC(Cc4ccc(F)cc4)CC3)c2c1", "READOUT_NAME": "inhibition", "ENDPOINT_UNIT": "%", "ENDPOINT_RESULT": 33}
{"CHEM_SMILES": "CS(=O)(=O)Nc1ccc2[nH]cc(C(=O)CN3CCC(Cc4ccc(F)cc4)CC3)c2c1", "READOUT_NAME": "inhibition", "ENDPOINT_UNIT": "%", "ENDPOINT_RESULT": 10}
{"CHEM_SMILES": "O=C(CN1CCC(Cc2ccc(F)cc2)CC1)c1c[nH]c2cc(O)c(O)cc12", "READOUT_NAME": "inhibition", "ENDPOINT_UNIT": "%", "ENDPOINT_RESULT": 84}
{"CHEM_SMILES": "O=C(CN1CCC(Cc2ccc(F)cc2)CC1)c1c[nH]c2ccc(O)cc12", "READOUT_NAME": "inhibition", "ENDPOINT_UNIT": "%", "ENDPOINT_RESULT": 60}
{"CHEM_SMILES": "O=C(C(=O)N1CCC(Cc2ccc(F)cc2)CC1)c1c[nH]c2cc(O)c(O)cc12", "READOUT_NAME": "inhibition", "ENDPOINT_UNIT": "%", "ENDPOINT_RESULT": 38}
{"CHEM_SMILES": "CS(=O)(=O)Nc1ccc2c(C(=O)CN3CCC(Cc4ccc(F)cc4)CC3)c[nH]c2c1", "READOUT_NAME": "inhibition", "ENDPOINT_UNIT": "%", "ENDPOINT_RESULT": 81}
{"CHEM_SMILES": "COc1cc2[nH]cc(C(=O)CN3CCC(Cc4ccccc4)CC3)c2cc1OC", "READOUT_NAME": "inhibition", "ENDPOINT_UNIT": "%", "ENDPOINT_RESULT": 1}

Moving on to another compound below.
If you can, please state the reported inhibition value of `O=C(C(=O)N1CCC(Cc2ccc(F)cc2)CC1)c1c[nH]c2ccc(O)cc12` .
11
